Molecular target: T1, His-tagged mouse CD38 (ACRO Biosystems #CD8-M5223) (mouse, UniProt P56528 45-304)
T1 construct: bought recombinant protein with His tag; also called Murine
T1 sequence (looked up): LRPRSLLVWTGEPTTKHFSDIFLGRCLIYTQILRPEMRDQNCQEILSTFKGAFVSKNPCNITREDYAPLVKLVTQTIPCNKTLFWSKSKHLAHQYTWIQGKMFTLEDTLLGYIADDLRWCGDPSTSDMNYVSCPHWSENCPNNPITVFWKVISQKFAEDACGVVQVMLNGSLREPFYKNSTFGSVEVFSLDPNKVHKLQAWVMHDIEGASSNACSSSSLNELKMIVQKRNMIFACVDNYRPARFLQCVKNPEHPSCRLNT
Experiment: SPR, captured scFv-Fc, His-CD38 analyte;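 further: SPR on a Carterra LSA, scFv-Fc captured by anti-human Fc on HC30M chip, His-tagged CD38 (human, mouse, cynomolgus) flowed as analyte in eight 1:2 steps from 400 nM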
Reported property: Kd

Short answer for 40566p1.B12 (scFv, V domains shown, tested as scFv-Fc supernatant) VH: DVQLVESGGGVVRPGESLRLSCAASGFTFDNYDMTWVRQAPGEGLEWVSFISSRGIFTYYADSVKGRFTISRDNSKNTLYLQMNSLRAEDTAIYYCAKDSGEYYFFDYWGLGTLVTVSS VL: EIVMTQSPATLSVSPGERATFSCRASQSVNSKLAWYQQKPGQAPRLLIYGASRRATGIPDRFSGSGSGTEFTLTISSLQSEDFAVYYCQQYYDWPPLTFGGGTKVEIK : Kd was 25.6 nM

Entry under test: 40769p1.1.A4 (scFv, V domains shown, tested as scFv-Fc supernatant) VH: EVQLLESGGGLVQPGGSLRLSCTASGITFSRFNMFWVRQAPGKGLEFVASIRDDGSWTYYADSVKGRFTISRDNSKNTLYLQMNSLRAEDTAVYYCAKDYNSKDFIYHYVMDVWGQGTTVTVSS VL: QSVLTQPPSASGTPGQRVTISCSGRNSNIGNNVVNWYQQLPGTAPKLLIYKDDQRPSGVPDRFSGSKSGTSASLAISGLQSEDEADYYCSTWDDSLNGWVFGGGTKLTVL . Its Kd was 675000 nM

Lab note: 40566p1.A8 (scFv, V domains shown, tested as scFv-Fc supernatant) VH: DVQLVESGGGVVRPGESLRLSCAASGFTFDNYDMTWVRQAPGEGLEWVSFISSRGTFTYYTDSVKGRFTISRDNSKNTLYLQMNSLRAEDTAIYYCAKDSGEYYFFDYWGLGTLVTVSS VL: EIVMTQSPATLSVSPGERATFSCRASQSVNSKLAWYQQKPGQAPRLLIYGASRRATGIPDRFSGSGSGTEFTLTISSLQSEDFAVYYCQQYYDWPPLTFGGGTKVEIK gave Kd of 5.81 nM

src = patent US20220306762A1
